Test system: SNB-19 CNS
assay notes: NCI-60 one-dose screen, 48 h (100 = growth as untreated, 0 = no growth, -100 = all killed)
test context: 10 µM unless noted
This is part of a sample that, as a whole, favours compounds with a hit. Of some 83,000 tested, about 20% had one in any assay. The source made the active and inactive calls. How the source made its calls: active means growth percent below 10; inactive means the rest.
Measured growth by item

compound | growth
C=C1CC[C@@H]2[C@]3(C)COC(c4cn(-c5ccccc5)nc4-c4ccccc4)O[C@@H]3CC[C@@]2(C)[C@@H]1C/C=C1/C(=O)OC[C@H]1O (stereo partly specified) | -60.8% (active)
COc1ccc(/C=C2\C(=O)Nc3ccc(Cl)cc32)cc1OCc1ccccn1 | 42.4% (inactive)
O=C(COc1ccc(NC(=O)Nc2ccc(Cl)c(Cl)c2)cc1)N=Nc1c(O)[nH]c2ccc(Cl)cc12 | -13.8% (active)
COc1ccc(/C=C/c2n(Cc3ccc4ccccc4c3)c3ccccc3[n+]2Cc2ccc3ccccc3c2)cc1 | -94.6% (active)
N#Cc1c(-c2cccc(Cl)c2Cl)cc(-c2c[nH]c3ccccc23)[nH]c1=O | 77.2% (inactive)
COc1c(F)ccc(C(=O)Nc2ccc3nc(NC(=O)C4CCCN(S(=O)(=O)C5CC5)C4)sc3c2)c1F (stereo unspecified) | 63.5% (inactive)
CCCCOc1ccc(NC(=O)c2sc3nc(C)ccc3c2N)cc1 | 0.979% (active)
N#Cc1c(-c2ccccc2Cl)cc(-c2ccc3ccccc3c2)[nH]c1=O | 17% (inactive)
CC(C)c1ccc2c(N)c(C(=O)Nc3ccc(C(F)(F)F)cn3)sc2n1 | 71.5% (inactive)
O=C(N=Nc1c(O)[nH]c2ccc(Cl)cc12)c1ccc2nc(-c3ccccc3)[nH]c2c1 | -52.5% (active)
Cc1ccccc1[C@H]1C(C(=O)c2ccc(Cl)cc2)C2(N[C@@H]1c1ccccc1)C(=O)Nc1ccc(Cl)cc12 (stereo partly specified) | 17.4% (inactive)
N#Cc1ccc(/C=N/NC(=O)c2[nH]c3ccc(Br)cc3c2-c2ccccc2)o1 | 34.5% (inactive)
C=C1CC[C@@H]2[C@]3(C)COC(c4cn[nH]c4-c4ccc(OC)cc4)O[C@@H]3CC[C@@]2(C)[C@@H]1C/C=C1/C(=O)OCC1O (stereo partly specified) | 18.5% (inactive)
COC(=O)C[C@](O)(CCCC(C)(C)O)C(=O)O[C@H]1C(OC)=C[C@@]23CCCN2CCc2cc4c(cc2[C@@H]13)OCO4 | -26.8% (active)
Cc1occc1C(=O)NN1C(=O)/C(=C/C=C/c2ccc([N+](=O)[O-])o2)SC1=S | 12.6% (inactive)
COc1ccc2[nH]c(O)c(N=NC(=O)Cn3c(-c4ccccc4)nc4cc(C)ccc43)c2c1 | 59.2% (inactive)
CC1(C)CC[C@]2(C(=O)O)CC[C@]3(C)C(=CCC4[C@@]5(C)C[C@@H](O)[C@@H]6OC(c7ccco7)OC[C@@]6(C)C5CC[C@]43C)C2C1 (stereo partly specified) | 28.4% (inactive)
C=CC(=O)Nc1ccc(C)c(Oc2ccc(Cl)cc2)c1 | 38% (inactive)
Cc1cccc(-c2nc(Nc3cccc(S(N)(=O)=O)c3)c3ccccc3n2)c1 | 51.4% (inactive)
O=C1NC(=O)/C(=C/c2ccccc2OCc2cc3ccccc3nc2Cl)S1 | 39.2% (inactive)
Cn1cc(-c2nnc(N)nc2-c2c[nH]c3ccc(Br)cc23)c2cc(Br)cnc21 | 65.5% (inactive)
Nc1nnc(-c2c[nH]c3ccc(Br)cc23)c(-c2c[nH]c3ncc(Br)cc23)n1 | 47% (inactive)
CCCn1cc(-c2nc(Nc3ccc(C(=O)NCCCCNc4cccc5c4C(=O)N(C4CCC(=O)NC4=O)C5=O)cc3)nc3[nH]ccc23)cn1 (stereo unspecified) | 23.4% (inactive)
O=C(COc1ccc(NC(=O)Nc2ccc(Cl)c(Cl)c2)cc1)N=Nc1c(O)[nH]c2ccc([N+](=O)[O-])cc12 | 67% (inactive)
O=C(/C=C/Nc1ccc(Cl)cc1)c1ccc2c(c1)Nc1ccccc1S2 | 9.53% (active)
Cc1cnc(C(=O)NNc2nc3cc(F)ccc3n3c(C(=O)N4CC5CC(C4)N5)ccc23)cn1 | 35.2% (inactive)
CC(=O)c1cc(C(=O)c2ccccc2)n2c1ccc1ccccc12 | 98% (inactive)
CC(=O)Nc1cccc(-c2nc3cc(-c4ccc(O)cc4)ccc3n2C)c1 | 51.2% (inactive)
COc1cc(-c2ccc(/C=N/NC(=O)c3[nH]c4ccc(Br)cc4c3-c3ccccc3)o2)cc(OC)c1OC | 52.4% (inactive)
COc1c(F)ccc(C(=O)Nc2ccc3nc(NC(=O)C4CCCN(S(=O)(=O)c5cccc(Br)c5)C4)sc3c2)c1F (stereo unspecified) | 82.7% (inactive)
COc1cc(CNC(=O)/C=C/c2ccc3c(c2)OCO3)ccc1OCc1cn(-c2cccc(C(F)(F)F)c2)nn1 | 33.1% (inactive)
COc1ccc2[nH]cc(-c3nnc(N)nc3-c3cn(C)c4ncc(Br)cc34)c2c1 | 69.6% (inactive)
Cc1cc2nc3c4ccccc4n(CC4=NCCN4)c3nc2cc1C | 15.8% (inactive)
COc1ccc(C(=O)/C=C/c2cccc(Cl)c2Cl)cc1S(N)(=O)=O | 6.23% (active)
NS(=O)(=O)c1ccc(-n2cc(-c3cccc(NC(=O)c4cc(Cl)cc(Cl)c4)c3)nn2)cc1 | 68.6% (inactive)
O=c1[nH]c(=O)c2c(-c3cc4ccccc4oc3=O)ccnc2[nH]1 | 75.5% (inactive)

Attribution: PubChem BioAssay (NCI)
